EXPERIMENTAL SYSTEM: human recombinant HDAC1 (Homo sapiens)
Construct: purchased Enzo Life Science BML-SE456
Sequence (Q13547 whole entry): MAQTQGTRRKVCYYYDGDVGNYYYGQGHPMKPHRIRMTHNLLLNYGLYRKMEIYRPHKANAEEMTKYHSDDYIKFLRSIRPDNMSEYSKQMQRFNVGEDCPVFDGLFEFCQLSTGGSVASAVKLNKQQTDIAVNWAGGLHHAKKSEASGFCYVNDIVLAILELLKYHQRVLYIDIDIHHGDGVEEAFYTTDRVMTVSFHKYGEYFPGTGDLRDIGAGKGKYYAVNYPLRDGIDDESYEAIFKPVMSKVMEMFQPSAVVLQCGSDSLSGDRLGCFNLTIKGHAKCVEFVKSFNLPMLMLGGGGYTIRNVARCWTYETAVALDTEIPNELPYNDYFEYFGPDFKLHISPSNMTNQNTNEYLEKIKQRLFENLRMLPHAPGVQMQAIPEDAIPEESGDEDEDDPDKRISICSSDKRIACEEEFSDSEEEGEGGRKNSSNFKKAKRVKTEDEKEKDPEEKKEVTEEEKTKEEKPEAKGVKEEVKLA
ASSAY INFO: HDAC1 enzyme activity inhibition assay (HDAC Fluorimetric Drug Discovery Kit)
Assay type: biochemical
TEST CONDITIONS: human recombinant HDAC1, Fluor de Lys substrate 10 μM, 30° C. 60 minutes
Description: In order to examine the HDAC6 selectivity of the compounds of formula I of the present invention by HDAC1 and HDAC6 enzymatic activity inhibition assays, an experiment was performed using a conventional substance as a control. HDAC enzyme activity was measured using a HDAC Fluorimetric Drug Discovery Kit (BML-AK511, 516, Enzo Life Science). […] Based on the resulting values, each IC5, value was calculated using GraphPad Prism4.0 program.
OBSERVED PROPERTY: IC50 (µM)

>>> numeric_readout("CCN1CCN(C(=O)N(Cc2ccc(-c3nnc(C(F)(F)F)o3)cn2)c2ccc(F)cc2)CC1 [Compound 21870]")
45.1
>>> numeric_readout("O=C(N1CCS(=O)(=O)CC1)N(Cc1ccc(-c2nnc(C(F)F)o2)cc1F)c1cccc(Cl)c1 [Compound 21810]")
15.7
>>> numeric_readout("CCN1CCN(C(=O)N(Cc2ccc(-c3nnc(C(F)(F)F)o3)cc2F)c2ccc(F)cc2)CC1 [Compound 21869]")
18.9
>>> numeric_readout("O=C(N1CCS(=O)(=O)CC1)N(Cc1ccc(-c2nnc(C(F)(F)F)o2)cc1)c1ccc(-c2ccoc2)cc1 [Compound 21491]")
4.04

###

EXPERIMENTAL SYSTEM: human recombinant HDAC6 (Homo sapiens, UniProt Q9UBN7)
Construct: purchased Calbiochem 382180
Sequence (Q9UBN7 whole entry): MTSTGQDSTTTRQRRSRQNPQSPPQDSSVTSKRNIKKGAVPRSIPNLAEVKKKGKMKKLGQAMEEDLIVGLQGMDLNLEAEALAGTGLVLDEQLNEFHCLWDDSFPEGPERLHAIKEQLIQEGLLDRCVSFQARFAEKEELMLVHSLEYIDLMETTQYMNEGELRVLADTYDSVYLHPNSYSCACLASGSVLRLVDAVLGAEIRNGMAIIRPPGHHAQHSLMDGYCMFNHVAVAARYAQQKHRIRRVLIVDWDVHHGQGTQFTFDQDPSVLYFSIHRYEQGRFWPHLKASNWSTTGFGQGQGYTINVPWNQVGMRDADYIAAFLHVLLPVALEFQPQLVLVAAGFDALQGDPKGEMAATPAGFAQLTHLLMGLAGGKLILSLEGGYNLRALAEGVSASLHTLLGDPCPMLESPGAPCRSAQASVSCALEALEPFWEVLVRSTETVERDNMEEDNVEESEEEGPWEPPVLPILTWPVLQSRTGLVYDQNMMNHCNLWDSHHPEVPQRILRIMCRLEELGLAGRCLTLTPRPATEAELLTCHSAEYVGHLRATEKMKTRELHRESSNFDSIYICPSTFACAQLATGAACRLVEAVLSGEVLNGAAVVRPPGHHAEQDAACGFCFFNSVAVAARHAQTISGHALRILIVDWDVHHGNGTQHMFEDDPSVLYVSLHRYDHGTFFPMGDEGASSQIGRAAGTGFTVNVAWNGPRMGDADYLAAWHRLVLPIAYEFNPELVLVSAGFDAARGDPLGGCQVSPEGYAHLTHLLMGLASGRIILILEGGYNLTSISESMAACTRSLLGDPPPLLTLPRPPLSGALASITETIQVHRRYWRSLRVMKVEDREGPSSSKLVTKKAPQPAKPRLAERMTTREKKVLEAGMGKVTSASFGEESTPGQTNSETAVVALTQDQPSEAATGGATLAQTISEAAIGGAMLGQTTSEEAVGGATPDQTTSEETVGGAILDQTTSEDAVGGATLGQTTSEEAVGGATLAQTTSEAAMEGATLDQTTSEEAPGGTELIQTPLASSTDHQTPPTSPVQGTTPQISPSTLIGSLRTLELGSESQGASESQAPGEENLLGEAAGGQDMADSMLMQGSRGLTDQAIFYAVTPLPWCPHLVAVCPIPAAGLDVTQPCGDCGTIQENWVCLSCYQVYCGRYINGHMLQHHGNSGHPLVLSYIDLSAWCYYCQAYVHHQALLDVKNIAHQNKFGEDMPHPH
ASSAY INFO: HDAC6 enzyme activity inhibition assay (HDAC Fluorimetric Drug Discovery Kit)
Format: biochemical
TEST CONDITIONS: human recombinant HDAC6, same protocol as HDAC1; read-out: HDAC6
pIC50: −log10 of the molar value.
# cutoff 7 applies to pIC50; >= gives True, < gives False

>>> category("CN1CCN(C(=O)N(Cc2ccc(-c3nnc(C(F)F)o3)cc2F)c2cccc(-c3ccncc3)c2)CC1")
"True"
>>> category("O=C(N1CCS(=O)(=O)CC1)N(Cc1ccc(-c2nnc(C(F)F)o2)cc1)c1cccc(C(F)(F)F)n1")
"False"
>>> category("O=C(N1CCS(=O)(=O)CC1)N(Cc1ccc(-c2nnc(C(F)(F)F)o2)cc1Cl)c1ccccc1")
"False"
>>> category("CN1CCN(C(=O)N(Cc2ccc(-c3nnc(C(F)F)o3)cc2F)c2ccc(-c3cccnc3)cc2)CC1")
"True"
>>> category("CCN1CCN(C(=O)N(Cc2ccc(-c3nnc(C(F)F)o3)cn2)c2ccc(OC)cc2)CC1")
"True"
>>> category("CCN1CCN(C(=O)N(Cc2ccc(-c3nnc(C(F)F)o3)cc2F)c2cccc(OC)c2)CC1")
"True"
>>> category("O=C(N1CCOCC1)N(Cc1ccc(-c2nnc(C(F)F)o2)cn1)c1ccc(F)c(Cl)c1")
"True"

###

Catalogue of molecules with associated IC50
EXPERIMENTAL SYSTEM: human recombinant HDAC6 (Homo sapiens, UniProt Q9UBN7)
Construct: purchased Calbiochem 382180
ASSAY INFO: HDAC6 enzyme activity inhibition assay (HDAC Fluorimetric Drug Discovery Kit)
Assay type: biochemical
TEST CONDITIONS: human recombinant HDAC6, same protocol as HDAC1; read-out: HDAC6
Protocol: In order to examine the HDAC6 selectivity of the compounds of formula I of the present invention by HDAC1 and HDAC6 enzymatic activity inhibition assays, an experiment was performed using a conventional substance as a control. HDAC enzyme activity was measured using a HDAC Fluorimetric Drug Discovery Kit (BML-AK511, 516, Enzo Life Science). […] Based on the resulting values, each IC5, value was calculated using GraphPad Prism4.0 program.
OBSERVED PROPERTY: IC50

>>> result("O=C(N1CCOCC1)N(Cc1ccc(-c2nnc(C(F)(F)F)o2)cc1F)c1ccc(Cl)cc1")
"436 nM"
>>> result("O=C(N1CCS(=O)(=O)CC1)N(Cc1ccc(-c2nnc(C(F)F)o2)cc1F)c1ccc(CN2CCN(Cc3ccccc3)CC2)cc1")
"190 nM"
>>> result("COc1cccc(N(Cc2ccc(-c3nnc(C(F)(F)F)o3)cc2F)C(=O)N2CCS(=O)(=O)CC2)c1")
"58 nM"
>>> result("O=C(N1CCOCC1)N(Cc1ccc(-c2nnc(C(F)(F)F)o2)cc1)c1ncccn1")
"130 nM"

###

EXPERIMENTAL SYSTEM: human recombinant HDAC6 (Homo sapiens)
Construct: purchased Calbiochem 382180
ASSAY INFO: HDAC6 enzyme activity inhibition assay (HDAC Fluorimetric Drug Discovery Kit)
Type: biochemical
TEST CONDITIONS: human recombinant HDAC6, same protocol as HDAC1; read-out: HDAC6
Below: a set of entries, each annotated with reported IC50.
OBSERVED PROPERTY: IC50

>>> result("CN(C)[C@H]1CCN(C(=O)N(Cc2ccc(-c3nnc(C(F)F)o3)cc2F)c2ccc(F)c(Cl)c2)C1")
"12 nM"
>>> result("O=C(N1CCOCC1)N(Cc1ncc(-c2nnc(C(F)F)o2)cn1)c1ccccc1")
"48 nM"
>>> result("Cc1ccc(N(Cc2ccc(-c3nnc(C(F)F)o3)cn2)C(=O)N2CCOCC2)c(F)c1")
"40 nM"
>>> result("O=C(N1CCS(=O)(=O)CC1)N(Cc1ccc(-c2nnc(C(F)F)o2)cc1F)c1ccc(CN2CCC(F)(F)C2)cc1")
"160 nM"
>>> result("O=C(N1CCS(=O)(=O)CC1)N(Cc1ccc(-c2nnc(C(F)(F)F)o2)cc1F)c1ccccc1")
"56 nM"
>>> result("O=C(N1CCS(=O)(=O)CC1)N(Cc1ccc(-c2nnc(C(F)(F)F)o2)cc1F)c1ccc2c(c1)CCO2")
"73 nM"
>>> result("C[C@@H]1CN(C(=O)N(Cc2ccc(-c3nnc(C(F)(F)F)o3)cc2)c2ccccc2)C[C@H](C)O1")
"165 nM"
>>> result("O=C(N1CCOCC1)N(Cc1ccc(-c2nnc(C(F)F)o2)cc1F)C12CC3CC(CC(C3)C1)C2")
"470 nM"
>>> result("O=C(NCCN1CCN(CCc2ccncc2)CC1)N(Cc1ccc(-c2nnc(C(F)F)o2)cc1F)c1ccccc1")
"95 nM"
>>> result("O=C(N1CCS(=O)(=O)CC1)N(Cc1ccc(-c2nnc(C(F)(F)F)o2)cc1)c1cccc(-c2ccoc2)c1")
"286 nM"
>>> result("O=C(N1CCOCC1)N(Cc1ccc(-c2nnc(C(F)F)o2)cc1)c1ccccc1")
"49 nM"
>>> result("O=C(N1CCS(=O)(=O)CC1)N(Cc1ccc(-c2nnc(C(F)(F)F)o2)cc1)c1ccc(F)cc1")
"93 nM"
>>> result("O=C(N1CCS(=O)(=O)CC1)N(Cc1ccc(-c2nnc(C(F)(F)F)o2)cc1)c1ccc(Br)cc1")
"246 nM"
>>> result("O=C(N1CCOCC1)N(Cc1ccc(-c2nnc(C(F)(F)F)o2)cc1)c1cccnc1")
"126 nM"
>>> result("O=C(N1CCC(F)(F)C1)N(Cc1ccc(-c2nnc(C(F)(F)F)o2)cc1F)c1ccc(F)c(Cl)c1")
"253 nM"

###

Measured HDAC6 selectivity (fold) values are reported for all entries that follow.
EXPERIMENTAL SYSTEM: human recombinant HDAC6 (Homo sapiens)
Construct: purchased Calbiochem 382180
ASSAY INFO: HDAC6 enzyme activity inhibition assay (HDAC Fluorimetric Drug Discovery Kit)
Type: biochemical
TEST CONDITIONS: HDAC6 over HDAC1
OBSERVED PROPERTY: HDAC6 selectivity (fold)

>>> numeric_readout("CN1CCC2(CC1)CN(C(=O)N(Cc1ccc(-c3nnc(C(F)F)o3)cc1F)c1ccccc1)C2")
714
>>> numeric_readout("CN1CC2(CCN(C(=O)N(Cc3ccc(-c4nnc(C(F)(F)F)o4)cc3)c3ccccc3)CC2)C1")
143
>>> numeric_readout("COc1ccccc1N(Cc1ccc(-c2nnc(C(F)F)o2)cc1F)C(=O)N1CCS(=O)(=O)CC1")
204
>>> numeric_readout("O=C(N1CCS(=O)(=O)CC1)N(Cc1ccc(-c2nnc(C(F)F)o2)cn1)c1ccc(F)cc1")
1542
>>> numeric_readout("CN1CCN(c2cccc(N(Cc3ccc(-c4nnc(C(F)F)o4)cc3)C(=O)N3CCS(=O)(=O)CC3)c2)CC1")
16
>>> numeric_readout("CCN1CC2(CCN(C(=O)N(Cc3ccc(-c4nnc(C(F)F)o4)cc3F)c3ccc4cnn(C)c4c3)CC2)C1")
88
>>> numeric_readout("CC(C)COC(=O)N(Cc1ccc(-c2nnc(C(F)F)o2)cc1)c1ccccc1")
32
>>> numeric_readout("O=C(NCCN1CCCN(Cc2ccccc2)CC1)N(Cc1ccc(-c2nnc(C(F)F)o2)cc1F)c1ccccc1")
61
>>> numeric_readout("COc1ccccc1N(Cc1ccc(-c2nnc(C(F)(F)F)o2)cc1)C(=O)N1CCS(=O)(=O)CC1")
37
>>> numeric_readout("O=C(N1CCS(=O)(=O)CC1)N(Cc1ccc(-c2nnc(C(F)F)o2)cc1F)c1cccs1")
73
>>> numeric_readout("O=C(NCCN1CCN(c2ccccc2)CC1)N(Cc1ccc(-c2nnc(C(F)F)o2)cc1F)c1ccccc1")
40
>>> numeric_readout("O=C(N1CCOCC1)N(Cc1ccc(-c2nnc(C(F)F)o2)cc1F)c1nccs1")
4
>>> numeric_readout("CN1CCN(C(=O)N(Cc2ccc(-c3nnc(C(F)F)o3)cc2F)c2cccc(-c3ccc4c(cnn4C)c3)c2)CC1")
145
>>> numeric_readout("CN1CCN(CCNC(=O)N(Cc2ccc(-c3nnc(C(F)F)o3)cc2F)c2ccccc2)CC1 [Compound 21993]")
117
>>> numeric_readout("CN(C)[C@@H]1CCN(C(=O)N(Cc2ccc(-c3nnc(C(F)F)o3)cc2F)c2ccc(F)cc2Cl)C1")
787
>>> numeric_readout("CN1CCN(CCNC(=O)N(Cc2ccc(-c3nnc(C(F)F)o3)cc2F)c2ccccc2)CC1 [Compound 21958]")
115
>>> numeric_readout("O=C(NCc1ccccc1)N(Cc1ccc(-c2nnc(C(F)(F)F)o2)cc1)c1ccccc1")
24
>>> numeric_readout("O=C(N1CCS(=O)(=O)CC1)N(Cc1ccc(-c2nnc(C(F)(F)F)o2)cc1)c1ccccc1")
147
>>> numeric_readout("CS(=O)(=O)c1ccc(N(Cc2ccc(-c3nnc(C(F)F)o3)cc2)C(=O)N2CCOCC2)cc1")
57
>>> numeric_readout("O=C(N1CCS(=O)(=O)CC1)N(Cc1ccc(-c2nnc(C(F)(F)F)o2)cc1)c1ccc(Cl)cc1")
56
>>> numeric_readout("Cc1ccccc1N(Cc1ccc(-c2nnc(C(F)F)o2)cn1)C(=O)N1CCN(C)CC1")
245
>>> numeric_readout("CS(=O)(=O)N1CCC2(CC1)CN(C(=O)N(Cc1ccc(-c3nnc(C(F)F)o3)cc1F)c1ccccc1)C2")
357
>>> numeric_readout("CN1CCN(C(=O)N(Cc2ccc(-c3nnc(C(F)(F)F)o3)cc2F)c2ccc(F)c(Cl)c2)CC1")
88
>>> numeric_readout("O=C(N1CCS(=O)(=O)CC1)N(Cc1ccc(-c2nnc(C(F)F)o2)nc1)c1ccc(F)c(Cl)c1")
9
>>> numeric_readout("O=C(N1CCS(=O)(=O)CC1)N(Cc1ccc(-c2nnc(C(F)F)o2)cc1)c1ccc(-c2cccnc2)cc1")
270
>>> numeric_readout("O=C(N1CCS(=O)(=O)CC1)N(Cc1ccc(-c2nnc(C(F)F)o2)cc1F)c1ccc(-c2ccncc2)cc1")
159
>>> numeric_readout("CN(C)[C@@H]1CCN(C(=O)N(Cc2ccc(-c3nnc(C(F)F)o3)cc2F)c2ccc(F)c(Cl)c2)C1")
370
>>> numeric_readout("O=C(NCCN1CCN(c2ccncc2)CC1)N(Cc1ccc(-c2nnc(C(F)F)o2)cc1F)c1ccccc1")
97
>>> numeric_readout("CCN1CCN(C(=O)N(Cc2ccc(-c3nnc(C(F)F)o3)cc2F)c2ccc(Cl)cc2)CC1")
204
